# tgt: peanut extract (peanut ImmunoCAP F13)
# assay summary: ImmunoCAP, hybridoma supernatant
observable: ImmunoCAP kUA/L (kUA/L)
Provide only the numeric value, understood in kUA/L.

The cases that follow already have their ImmunoCAP kUA/L on record.
**Query** Determine its reported ImmunoCAP kUA/L: human IgE mAb 26A5 (antibody, V domains shown) VH: QVQLVQSGSELRKPGASVKVSCKASGYTFTKYGMNWVRQAPGQGLEWMGWINTNTAKPTYAQDFTGRFVFSLDTSVNTAYLEISGLKAEDTAVYYCATDGSEGSWGQGTLVTVSS VL: DIQMTQSPSTLSASVGDRVTITCRASQSIGTWLAWHQQKPGTAPKVLIYKASNLKSGVPSRFSGSGSGTDFTLTISSLQPDDVATYYCQQYNTYSGTFGQGTRVEIK
**Result** 783

**Query** Determine its reported ImmunoCAP kUA/L: human IgE mAb 15A7 (antibody, V domains shown) VH: QVQLVQSGPEVRKPGASVKVSCKTSGYMFTDYEMNWVRQAPGQGLEWMGLINPHSGDTGYAQKFQGRVSMTSDTSTRTFYLELTGLTSEDTAVYYCARSQGTFEVYYFVSWGQGSLVTVSS VL: SYVLTQPPSVSVAPGKTASITCGAKNIATKRVHWYRQKPGQAPVVVVSDEEDRSSVIPERFSGSKSGDTATLEISRVEAGDEADYYCQVWDSLADQVVFGGGTKVTVL
**Result** 14

**Query** Determine its reported ImmunoCAP kUA/L: human IgE mAb 2C9 (antibody, V domains shown) VH: QVQLVESGGGLVKPGGSLRLSCAASGFSFSDFYMSWIRQAPGKGLECISYMSSSGGNIYYADSVKGRFTISRDNAKNSLSLQMNSLRADDTALYYCARRRYGSGSSIFDYWSQGTLVTVSS VL: SYELTQPPSVSVSPGQTASVTCSGDTLGDRYVSWYQQKAGQSPVLVIYQSGQRPSGIPERFSGSNSGNTATLSISETQALDEADYYCLTWDRGTPVFGPGTTVTVV
**Result** 21.4

Turning to the following binder.
**Query** Determine its reported ImmunoCAP kUA/L: human IgE mAb 38B7 (antibody, V domains shown) VH: QVQLVESGGGVVQPGRSLRLSCVGSGFTFRRDAKYWVRQAPGKGLEWVAAISHDGGEEDYAESVKGRFTISRDNSRETVYLEMNSLRPEDTAVYYCATTRSGWYFDYWGQGALVTVSS VL: EIVLTQSPATLSLSPGARATLSCRASQSVDTYLAWYQQRRGQSPRLLIYDASKRATGIPARFSGSGSGTDFTLTISSLEPEDFAVYYCQQRNNWRTWTFGQGTKVEIN
**Result** 286
